Tested on: THP-1 clone No. 63 (pGL2_Neo30; luciferase mRNA with three tandem AUUUA motifs of the IL-1β 3′UTR)
Test: Luciferase reporter gene assay, clone No. 63 (pGL2_Neo30, with mRNA instability sequence)
Assay type: cell-based, human
Design: unit not given here
Settings: clone 63; 5 μM
Strictly below 60 in Luciferase reporter gene assay, luciferase activity: 1. Otherwise: 0.

Inquiry: Dear colleague, could you confirm whether Luciferase reporter gene assay, luciferase activity of COc1cc(O)c2c(c1)/C=C/CC(O)C(O)C(=O)/C=C\CC(C)OC2=O (stereo not shown) falls below 60? Thanks.
Reply text: 0

Inquiry: Item COc1cc(O)c2c(c1)/C=C/CC(O)C(O)C(=O)CCCC(C)OC2=O (stereo not shown) : Luciferase reporter gene assay, luciferase activity beneath 60, strictly?
Reply text: 0

Inquiry: Does this compound meet the criterion Luciferase reporter gene assay, luciferase activity < 60? `COc1cc(O)c2c(c1OC)/C=C/C[C@H](O)[C@H](O)C(=O)/C=C/C[C@H](C)OC2=O`
Reply text: 1

Inquiry: Consider COc1cc(O)c2c(c1OC)/C=C/C[C@H](O)[C@H](O)C(=O)/C=C\C[C@H](C)OC2=O [drawing 13] . Does its Luciferase reporter gene assay, luciferase activity lie strictly below 60?
Reply text: 1

Inquiry: # TODO verify Luciferase reporter gene assay, luciferase activity < 60 strictly for this compound: `C[C@@H]1C[C@H]2O[C@@H]2/C=C\C=C\C(=O)Cc2c(Cl)c(O)cc(O)c2C(=O)O1`
Reply text: 1

Inquiry: For `C[C@@H]1C[C@H]2O[C@@H]2CCCCC(=O)Cc2c(Cl)c(O)cc(O)c2C(=O)O1` , is the recorded Luciferase reporter gene assay, luciferase activity below the cut-off of 60?
Reply text: 1
